target: Membrane-associated tyrosine- and threonine-specific cdc2-inhibitory kinase (Homo sapiens, UniProt Q99640)
Sequence (Q99640 whole entry, the tested form may be a part): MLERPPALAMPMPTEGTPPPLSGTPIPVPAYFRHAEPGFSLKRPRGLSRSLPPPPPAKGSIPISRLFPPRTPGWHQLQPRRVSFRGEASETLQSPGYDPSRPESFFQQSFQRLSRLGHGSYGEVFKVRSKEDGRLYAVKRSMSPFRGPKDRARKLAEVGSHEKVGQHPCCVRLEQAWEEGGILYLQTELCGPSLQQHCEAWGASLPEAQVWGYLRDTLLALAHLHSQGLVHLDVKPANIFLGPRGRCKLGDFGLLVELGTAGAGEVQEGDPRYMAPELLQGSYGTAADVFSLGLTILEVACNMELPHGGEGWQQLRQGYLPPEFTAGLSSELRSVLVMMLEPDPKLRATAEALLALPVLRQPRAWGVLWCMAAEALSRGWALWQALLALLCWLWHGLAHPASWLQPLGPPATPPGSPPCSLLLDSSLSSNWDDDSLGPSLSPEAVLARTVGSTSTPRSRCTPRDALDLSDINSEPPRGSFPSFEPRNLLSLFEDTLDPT
property label: pKi
# pKi is unitless: minus log10 of the molar concentration; print number only

For record Cc1cc(Nc2ncc3cc(-c4c(Cl)cccc4Cl)c(=O)n(C)c3n2)ccc1F the listed pKi is 5.87

---

target: Membrane-associated tyrosine- and threonine-specific cdc2-inhibitory kinase (Homo sapiens); assay: Displacement of (6-FAM)KI(pY)VV from PKMYT1 kinase domain (unknown origin) at 20 uM by fluorescence polarization binding assay relative to control
property label: inhibition (%)
# number only, unit % dropped from output

Solved entries:
COc1ccc(Nc2nc(Nc3ccc(N4CCOCC4)cc3)ncc2OC)cc1O 39.7
CSc1cnc(Nc2ccc(N3CCOCC3)cc2)nc1Nc1cccc(O)c1 100
CSc1cnc(Nc2ccc(N3CCOCC3)cc2)nc1Nc1cc(C)ccc1Cl 13

// switching to the query compound
Form: compound = COc1cnc(Nc2ccc(N3CCOCC3)cc2)nc1Nc1ccc(C)c(O)c1 ; inhibition = 100

---

biological target: Membrane-associated tyrosine- and threonine-specific cdc2-inhibitory kinase (Homo sapiens) (UniProt Q99640); test: Displacement of (6-FAM)KI(pY)VV from PKMYT1 kinase domain (unknown origin) at 20 uM by fluorescence polarization binding assay relative to control
property label: inhibition (%)
Lab book: enter the figure in %, no units written.

Oc1cccc(Nc2nc(Nc3ccc(N4CCOCC4)cc3)ncc2Cl)c1 75
CNC(=O)c1ccccc1Nc1nc(Nc2ccc(N3CCOCC3)cc2)ncc1OC 100

Item: COc1cnc(Nc2ccc(N3CCOCC3)cc2)nc1Nc1cccc(O)c1 | inhibition: 74.8

---

target: Membrane-associated tyrosine- and threonine-specific cdc2-inhibitory kinase (Homo sapiens, UniProt Q99640); test: […] from PKMYT1 kinase domain (unknown origin) by fluorescence polarization binding assay
Parameter: IC50. Scope: all listed entries.
Just the number in µM, nothing appended.

Solved entries:
COc1cnc(Nc2ccc(N3CCOCC3)cc2)nc1Nc1ccc(C)c(O)c1 9.33
CSc1cnc(Nc2ccc(N3CCOCC3)cc2)nc1Nc1cccc(O)c1 6.03
Oc1cccc(Nc2nc(Nc3ccc(N4CCOCC4)cc3)ncc2Cl)c1 6.03

The measured IC50 associated with CNC(=O)c1ccccc1Nc1nc(Nc2ccc(N3CCOCC3)cc2)ncc1OC reads 6.31

---

target: Membrane-associated tyrosine- and threonine-specific cdc2-inhibitory kinase (Homo sapiens); assay: Displacement of (6-FAM)KI(pY)VV from PKMYT1 kinase domain (unknown origin) at 20 uM by fluorescence polarization binding assay relative to control
In this section, each of the molecules is paired with its reported inhibition.
Answer format: numeric, % implied, no suffix.

Some solved cases for reference:
Cc1ccc(Nc2nc(Nc3ccc(N4CCOCC4)cc3)ncc2Br)cc1O 26.7
COc1ccc(Nc2nc(Nc3ccc(N4CCOCC4)cc3)ncc2Br)cc1O 27

The value of inhibition recorded for Oc1cccc(Nc2nc(Nc3ccc(N4CCOCC4)cc3)ncc2Br)c1 when tested on Membrane-associated tyrosine- and threonine-specific cdc2-inhibitory kinase (Homo sapiens) reads 21.1
